system: Prostaglandin D2 receptor 2, CRTh2 (Homo sapiens); assay: Antagonist activity at CRTH2 receptor (unknown origin) expressed in CHOK1 cells assessed as dissociation half life measured up to 25 hrs by GTPgammaS assay; details: CHO-K1
Mark each entry TRUE if its T1/2 sits below 1 h, and FALSE for all others.

Consider the worked cases shown below.
>  <chemical smiles>
Cc1c(Cc2ccccc2S(=O)(=O)c2ccc(F)cc2)nc(-c2ccccc2)n1CC(=O)O

>  <category label>
TRUE

$$$$
>  <chemical smiles>
O=C(O)Cc1nn(Cc2ccccc2S(=O)(=O)c2ccccc2)c(=O)c2ccccc12

>  <category label>
TRUE

$$$$
>  <chemical smiles>
Cc1c(Cc2ccccc2S(=O)(=O)c2ccc(F)cc2)c2c(n1CC(=O)O)CCCC2=O

>  <category label>
FALSE

$$$$
>  <chemical smiles>
COc1ccc(S(=O)(=O)c2ccc(F)cc2)c(Cn2c(C)c(CC(=O)O)c3ccc(C)nc32)c1

>  <category label>
FALSE

$$$$
>  <chemical smiles>
O=C(O)Cc1cc(Cc2ccccc2S(=O)(=O)c2ccccc2)c2nc(C(F)(F)F)ccn12

>  <category label>
TRUE

$$$$

T1/2 under 1 h? Item: Cc1ccc2c(CC(=O)O)c(C)n(Cc3ccccc3S(=O)(=O)c3ccccc3)c2n1 FALSE

T1/2 under 1 h? Item: COc1ccc(S(=O)(=O)c2ccc(F)cc2)c(Cc2c3c(n(CC(=O)O)c2C)CCCC3=O)c1 FALSE

T1/2 under 1 h? Item: Cc1c(Cc2ccccc2S(=O)(=O)c2ccccc2)c2cc(F)ccc2n1CC(=O)O FALSE

T1/2 under 1 h? Item: Cc1c(CC(=O)O)c(-c2ccccc2)nn1Cc1ccccc1S(=O)(=O)c1ccccc1 TRUE

* * *

target: Prostaglandin D2 receptor 2 (Homo sapiens); assay: Displacement of [35S]-GTPgammaS from CRTH2 receptor (unknown origin) expressed in CHOK1 cell membrane after 1 hr by liquid scintillation counter
// classify(record): look up IC50 in ranges band A (below 10 nM), band B (10 nM to below 900 nM), band C (900 nM or more)

>  <chemical smiles>
Cc1ccc2c(CC(=O)O)c(C)n(Cc3ccccc3S(=O)(=O)c3ccccc3)c2n1

>  <category label>
band B

$$$$
>  <chemical smiles>
O=C(O)CN1c2cccnc2N(Cc2ccccc2S(=O)(=O)c2ccccc2)S1(=O)=O

>  <category label>
band C

$$$$
>  <chemical smiles>
Cc1c(Cc2ccccc2S(=O)(=O)c2ccc(F)cc2)c2c(n1CC(=O)O)CCCC2=O

>  <category label>
band A

$$$$
>  <chemical smiles>
Cc1c(Cc2ccccc2S(=O)(=O)c2ccccc2)c(-c2ccccc2)nn1CC(=O)O

>  <category label>
band B

$$$$
>  <chemical smiles>
Cc1c(Cc2ccccc2S(=O)(=O)c2ccc(F)cc2)c2c(n1CC(=O)O)CCCC2

>  <category label>
band B

$$$$

Class label required: COc1ccc(S(=O)(=O)c2ccc(F)cc2)c(Cc2c(C)c(CC(=O)O)c3ccncn23)c1 band A

Class label required: COc1ccc(S(=O)(=O)c2ccc(F)cc2)c(Cc2c3c(n(CC(=O)O)c2C)CCCC3=O)c1 band A

* * *

Entries annotated with measured inhibition
target: Prostaglandin D2 receptor 2 (Homo sapiens) (UniProt Q9Y5Y4); test: Displacement of [35S]-GTPgammaS from CRTH2 receptor (unknown origin) expressed in CHOK1 cell membrane at 10 uM after 1 hr by liquid scintillation counter; assay type: cell membranes; settings: CHO-K1
Sequence (Q9Y5Y4 whole entry): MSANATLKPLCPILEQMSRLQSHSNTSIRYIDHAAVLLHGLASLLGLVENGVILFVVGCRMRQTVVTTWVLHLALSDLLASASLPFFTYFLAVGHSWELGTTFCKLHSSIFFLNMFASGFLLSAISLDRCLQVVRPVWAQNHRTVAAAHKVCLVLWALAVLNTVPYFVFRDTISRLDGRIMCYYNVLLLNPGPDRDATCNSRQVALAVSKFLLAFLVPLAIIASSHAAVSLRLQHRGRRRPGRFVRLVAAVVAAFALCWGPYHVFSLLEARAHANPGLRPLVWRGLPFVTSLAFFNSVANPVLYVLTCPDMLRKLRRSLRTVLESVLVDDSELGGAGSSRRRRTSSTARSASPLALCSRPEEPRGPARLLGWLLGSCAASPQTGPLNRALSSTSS

Example results:
>  <chemical smiles>
O=C(O)Cn1nc(-c2ccccc2)cc(Cc2ccccc2S(=O)(=O)c2ccccc2)c1=O

>  <target entity>
Prostaglandin D2 receptor 2 (Homo sapiens) (UniProt Q9Y5Y4)

>  <inhibition>
< 25%

$$$$
>  <chemical smiles>
O=C(O)Cn1nc(Cc2ccccc2S(=O)(=O)c2ccccc2)c2ccccc2c1=O

>  <target entity>
Prostaglandin D2 receptor 2 (Homo sapiens) (UniProt Q9Y5Y4)

>  <inhibition>
< 25%

$$$$
>  <chemical smiles>
O=C(O)Cc1cccn(Cc2ccccc2S(=O)(=O)c2ccccc2)c1=O

>  <target entity>
Prostaglandin D2 receptor 2 (Homo sapiens) (UniProt Q9Y5Y4)

>  <inhibition>
< 25%

$$$$

Then there is this compound:
Need inhibition, item O=C(O)Cn1nc(-c2ccccc2)n(Cc2ccccc2S(=O)(=O)c2ccccc2)c1=O < 25%

* * *

target: Prostaglandin D2 receptor 2 (Homo sapiens, UniProt Q9Y5Y4); assay: Displacement of [35S]-GTPgammaS from CRTH2 receptor (unknown origin) expressed in CHOK1 cell membrane after 1 hr by liquid scintillation counter; format: cell membranes, CHO-K1
Sequence (Q9Y5Y4 whole entry): as above
Mark each entry Fulfilled if its IC50 sits below 1000 nM, and Not fulfilled for all others.

>  <chemical smiles>
Cc1c(Cc2ccccc2S(=O)(=O)c2ccccc2)c2cc(F)ccc2n1CC(=O)O

>  <category label>
Fulfilled

$$$$
>  <chemical smiles>
O=C(O)Cn1c(-c2ccccc2)nn(Cc2ccccc2S(=O)(=O)c2ccccc2)c1=O

>  <category label>
Not fulfilled

$$$$
>  <chemical smiles>
COc1ccc(S(=O)(=O)c2ccc(F)cc2)c(Cn2c(C)c(CC(=O)O)c3ccc(C)nc32)c1

>  <category label>
Fulfilled

$$$$
>  <chemical smiles>
O=C(O)Cc1cc(Cl)c(=O)n(Cc2ccccc2S(=O)(=O)c2ccccc2)c1

>  <category label>
Fulfilled

$$$$
>  <chemical smiles>
Cc1c(Cc2ccccc2S(=O)(=O)c2ccc(F)cc2)nc(-c2ccccc2)n1CC(=O)O

>  <category label>
Fulfilled

$$$$
>  <chemical smiles>
COc1ccc(S(=O)(=O)c2ccc(F)cc2)c(Cn2cc(CC(=O)O)c3ccc(C)nc32)c1

>  <category label>
Fulfilled

$$$$
>  <chemical smiles>
Cc1c(-c2ccccc2)n(CC(=O)O)c(=O)n1Cc1ccccc1S(=O)(=O)c1ccc(F)cc1

>  <category label>
Not fulfilled

$$$$
>  <chemical smiles>
O=C(O)Cc1nc(Cc2ccccc2S(=O)(=O)c2ccccc2)n2ccccc12

>  <category label>
Not fulfilled

$$$$

Continue with the compound presented below.
IC50 under 1000 nM? Item: O=C(O)Cc1cc(Cc2ccccc2S(=O)(=O)c2ccccc2)c2nc(C(F)(F)F)ccn12 Fulfilled

* * *

molecular target: Prostaglandin D2 receptor 2 (Homo sapiens, UniProt Q9Y5Y4); assay: Displacement of [35S]-GTPgammaS from CRTH2 receptor (unknown origin) expressed in CHOK1 cell membrane after 1 hr by liquid scintillation counter
readout name: pIC50
Convention used: pIC50 is expressed as -log10 of the molar concentration.

>  <chemical smiles>
Cc1c(Cc2ccccc2S(=O)(=O)c2ccccc2)c(=O)n(-c2ccccc2)n1CC(=O)O

>  <pIC50>
6.01

$$$$
>  <chemical smiles>
O=C(O)Cc1ccc(=O)n(Cc2ccccc2S(=O)(=O)c2ccccc2)c1

>  <pIC50>
5.00

$$$$
>  <chemical smiles>
O=C(O)Cc1nn(Cc2ccccc2S(=O)(=O)c2ccccc2)c(=O)c2ccccc12

>  <pIC50>
7.19

$$$$

Then there is this molecule:
Need pIC50, item Cc1c(CC(=O)O)c2ccncn2c1Cc1ccccc1S(=O)(=O)c1ccccc1 7.55
